Source of measurements: patent US12011444B2

The entries below are paired with their reported pIC50.
molecular target: EP2 (Homo sapiens (Human), UniProt P43116);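 note: antagonism of PGE2-stimulated cAMP accumulation in SF295 human glioblastoma cells with endogenous EP2, cAMP read by HTRF, expressed relative to DMSO control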
Sequence (P43116 whole entry): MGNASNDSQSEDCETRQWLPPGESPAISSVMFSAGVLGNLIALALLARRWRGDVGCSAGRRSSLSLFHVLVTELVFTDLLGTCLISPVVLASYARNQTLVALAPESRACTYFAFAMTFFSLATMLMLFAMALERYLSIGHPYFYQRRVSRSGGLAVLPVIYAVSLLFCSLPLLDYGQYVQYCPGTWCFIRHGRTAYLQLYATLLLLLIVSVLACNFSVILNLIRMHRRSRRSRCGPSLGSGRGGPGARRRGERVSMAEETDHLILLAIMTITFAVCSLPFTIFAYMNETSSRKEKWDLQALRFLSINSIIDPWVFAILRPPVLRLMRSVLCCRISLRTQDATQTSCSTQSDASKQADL
pIC50: −log10 of the molar value.

# molecule-smiles, pIC50
measured = [
    ("Cc1nc(NCCn2c(C)cc3c(C)cc(F)cc32)cc(-c2ccc(C(=O)O)c(CC(C)C)c2)n1", 7.24),
    ("CCNc1cc(-c2cc(NCCn3c(C)cc4c(OC)ccc(Cl)c43)ncn2)ccc1C(=O)O", 9.00),
    ("CCOc1cc(-c2cc(NCCn3c(C)cc4c(OC)cc(F)cc43)ncn2)cc(F)c1-c1nnn[nH]1", 7.62),
    ("COc1cc(F)cc2c1cc(C)n2CCNc1cc(-c2ccc3[nH]c(C(F)(F)F)nc3c2)ncn1", 6.32),
    ("Cc1ccc(F)c2c1cc(C)n2CCNc1cc(-c2ccc(-c3ccccn3)cc2)ncn1", 6.99),
    ("COc1ccc(Cl)c2c1cc(C)n2CCNc1cc(-c2ccc(C(=O)O)c(OC(F)(F)F)c2)ncn1", 7.32),
    ("COc1cc(F)cc2c1cc(C)n2CCNc1cc(-c2ccc(-c3cc(F)ccn3)cc2)ncn1", 7.26),
    ("COc1cccc2c1cc(C)n2CCNc1cc(-c2ccc(-c3csc(CC(N)=O)n3)cc2)ncn1", 7.89),
    ("Cc1cc(F)c(F)c2c1cc(C)n2CCNc1cc(-c2ccc3c(ccn3C)c2)ncn1", 6.78),
    ("CCOc1cc(-c2cc(NCCn3c(C)cc4c(OC)cc(F)cc43)nc(C(F)(F)F)n2)sc1C(=O)O", 7.30),
    ("CCCc1cc(-c2cc(NCCn3c(C)cc4c(C)cc(F)cc43)ncn2)cc(F)c1C(=O)O", 7.28),
    ("CCCCOc1cc(-c2cc(NCCn3c(C)cc4c(C)ccc(F)c43)ncn2)ccc1C(=O)O", 8.52),
    ("COc1ccc(F)c2c1cc(C)n2CCNc1cc(-c2ccc(-c3ccccn3)cc2)ncn1", 7.74),
    ("Cc1cc(F)cc2c1cc(C)n2CCNc1cc(-c2ccc(-c3cnc(N)o3)cc2)ncn1", 7.59),
    ("COc1cc(F)cc2c1cc(C)n2CCNc1cc(-c2cc(OC(C)C)c(C(=O)O)s2)ncn1", 8.52),
    ("CCCc1cc(-c2cc(NCCn3c(C)cc4c(OC)ccc(F)c43)ncn2)cc(OCC)c1C(=O)O", 7.57),
    ("Cc1cc(F)cc2c1cc(C)n2CCNc1cc(-c2ccc(-c3ccccn3)cc2)ncn1", 7.52),
    ("COc1cc(-c2ccc(-c3cc(NCCn4c(C)cc5c(OC)cc(F)cc54)ncn3)cc2)ncn1", 7.09),
    ("COc1cc(F)cc2c1cc(C)n2CCNc1cc(-c2ccc(C(=O)O)c(OCC(C)C)c2)ncn1", 8.10),
    ("Cc1ccc(F)c2c1cc(C)n2CCNc1cc(-c2ccc3[nH]ccc3c2)ncn1", 7.68),
    ("CNc1nnc(-c2ccc(-c3cc(NCCn4c(C)cc5c(OC)ccc(F)c54)ncn3)cc2)s1", 8.70),
    ("Cc1cc(-c2ccc(-c3cc(NCCn4c(C)cc5c(C)ccc(F)c54)ncn3)cc2)on1", 7.14),
    ("Cc1ccc(F)c2c1cc(C)n2CCNc1cc(-c2ccc3c(c2)OCCO3)ncn1", 6.74),
    ("COc1cc(F)cc2c1cc(C)n2CCNc1cc(-c2ccc3[nH]ccc3c2)ncn1", 8.05),
    ("COc1ccc(F)c2c1cc(C)n2CCNc1cc(-c2ccc3c(=O)[nH][nH]c3c2)ncn1", 7.49),
    ("Cc1cnoc1-c1ccc(-c2cc(NCCn3c(C)cc4c(C)ccc(F)c43)ncn2)cc1", 7.03),
    ("CCc1cc(-c2cc(NCCn3c(C)cc4c(OC)ccc(Cl)c43)ncn2)cc(F)c1C(=O)O", 7.60),
    ("COc1cc(F)cc2c1cc(C)n2CCNc1cc(-c2cccc(-n3cccn3)c2)ncn1", 7.39),
    ("CCCOc1cc(-c2cc(NCCn3c(C)cc4c(C)cc(F)cc43)ncn2)cc(Cl)c1C(=O)O", 7.46),
    ("COc1cc(F)cc2c1cc(C)n2CCNc1cc(-c2ccc(-c3nc(C)cs3)cc2)ncn1", 7.49),
    ("COc1ccc(F)c2c1cc(C)n2CCNc1cc(-c2ccc(-c3cncn3C)cc2)ncn1", 7.41),
]
